FYI, the data here is from patent US20240158368A1.

pEC50, SARS-CoV-1 Mpro (Severe acute respiratory syndrome coronavirus (SARS-CoV), UniProt P0C6X7), per-entry values.
Give bare numbers, as −log10 of the molar value.

The examples below pair each entry with its known result.
# MOLECULE, pEC50
records = [
    ("O=C(N[C@@H]1CCN(c2c(C(=O)N3CCOCC3)cc(Br)cc2C(F)(F)F)C1)c1cc(=O)[nH]c2ccccc12 [Compound 56]", 8.35),
    ("COc1cccc2[nH]c(=O)cc(C(=O)N[C@@H]3CCN(c4c(C(=O)N5CCOCC5)cc(C#N)cc4C(F)(F)F)C3)c12 [Compound 9]", 9.10),
    ("Cc1cc(C(=O)N[C@@H]2CCN(c3c(C(=O)N4CCOCC4)cc(Br)cc3C(F)(F)F)C2)c(F)c(=O)[nH]1 [Compound 3]", 9.01),
    ("O=C(N[C@@H]1CCN(c2c(C(=O)N3CCOCC3)cc(Br)cc2C(F)(F)F)C1)c1cc(=O)[nH]c2c(Cl)cccc12 [Compound 58]", 8.97),
    ("O=C(N[C@@H]1CCN(c2c(C(=O)N3CCOCC3)cc(Cl)cc2C(F)(F)F)C1)c1c(F)c(=O)[nH]c2c(F)cccc12 [Compound 55]", 9.25),
]

(Q) For the molecule shown here, NC(=O)c1cc(C(=O)N2CCOCC2)c(N2CC[C@@H](NC(=O)c3cc(=O)[nH]c4c(F)cccc34)C2)c(C(F)(F)F)c1 [Compound 35] , give the reported pEC50.
(A) 8.61
